The measurements presented in this section are drawn from patent US10975068B2.

The following compounds are shown together with reported Kd values.
biological target: human RORγt ligand binding domain (RORγt LBD) (Homo sapiens (Human), UniProt P51449); assay: RORγt ThermoFluor® assay (thermal shift binding); settings: read-out: ThermoFluor® Assay, Kd
Sequence (P51449 other isoform, or with tags, fused parts or gaps): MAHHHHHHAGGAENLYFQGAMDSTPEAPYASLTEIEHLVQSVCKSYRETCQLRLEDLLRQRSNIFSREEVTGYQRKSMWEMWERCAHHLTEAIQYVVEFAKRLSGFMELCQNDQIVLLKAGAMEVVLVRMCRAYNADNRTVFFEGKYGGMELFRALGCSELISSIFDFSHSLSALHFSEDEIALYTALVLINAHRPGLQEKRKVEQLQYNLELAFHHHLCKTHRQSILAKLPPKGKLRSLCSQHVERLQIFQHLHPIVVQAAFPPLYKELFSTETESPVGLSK

- Smiles: "CCOc1cc(NC2CCCCC2)ncc1-c1sc(C(=O)NCC(C)(C)O)nc1C(=O)N1CCC(F)CC1"
  Kd: "0.17 µM"
- Smiles: "C[C@@H](Nc1cc(C(F)F)c(-c2sc(C(=O)NCC(C)(C)O)nc2C(=O)N2CCC[C@@H]2C)cn1)C1CC1"
  Kd: "0.071 µM"
- Smiles: "C[C@H]1CCCN1C(=O)c1nc(C(=O)N[C@H](C)C(C)(C)O)sc1-c1cnc(N[C@@H](C2CC2)C(F)(F)F)cc1C(F)F"
  Kd: "0.0037 µM"
- Smiles: "C[C@H]1CCCN1C(=O)c1nc(C(=O)N[C@H]2C[C@H](O)C2)sc1-c1cnc(NC2CCCC2)cc1C(F)F"
  Kd: "0.073 µM"
- Smiles: "CC1(Nc2cc(C(F)F)c(-c3sc(C(=O)NC4CCS(=O)(=O)CC4)nc3C(=O)N3C4CCC3CC4)cn2)CCC1"
  Kd: "0.0015 µM"
- Smiles: "C[C@H]1CCCN1C(=O)c1nc(C(=O)N[C@H]2C[C@H](S(C)(=O)=O)C2)sc1-c1cnc(NC2CCCC2)cc1C(F)F"
  Kd: "0.035 µM"
- Smiles: "C[C@H]1CC(F)(F)CN1C(=O)c1nc(C(=O)NCC(C)(C)O)sc1-c1cnc(NC2CCCC2)cc1C(F)F"
  Kd: "0.0025 µM"
